Biological target: Low molecular weight protein-tyrosine phosphatase A (Mycobacterium tuberculosis, UniProt P9WIA1)
Sequence (P9WIA1 whole entry): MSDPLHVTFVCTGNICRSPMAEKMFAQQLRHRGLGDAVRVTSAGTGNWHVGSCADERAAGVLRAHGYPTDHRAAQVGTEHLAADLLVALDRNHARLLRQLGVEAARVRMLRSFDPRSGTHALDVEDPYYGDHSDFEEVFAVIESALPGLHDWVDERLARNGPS
measuredQuantity: IC50 (µM)
Give the value, in units of µM, as a plain number.

Request: Recorded IC50 for CCCC[C@@H](C(=O)O)N1C(=O)/C(=C/c2ccc(-c3cccc(C(F)(F)F)c3)cc2)SC1=S , please?
Response: 4.06

----------
target: Triple specificity protein phosphatase PtpB (Mycobacterium tuberculosis (strain ATCC 25618 / H37Rv), UniProt I6WXK4); experiment: Inhibition of Mycobacterium tuberculosis H37Rv ptpB expressed in Escherichia coli BL21(DE3) using pNPP as substrate preincubated for 10 mins followed by substrate addition and measured for 5 mins by spectrophotometer analysis
Sequence (I6WXK4 whole entry): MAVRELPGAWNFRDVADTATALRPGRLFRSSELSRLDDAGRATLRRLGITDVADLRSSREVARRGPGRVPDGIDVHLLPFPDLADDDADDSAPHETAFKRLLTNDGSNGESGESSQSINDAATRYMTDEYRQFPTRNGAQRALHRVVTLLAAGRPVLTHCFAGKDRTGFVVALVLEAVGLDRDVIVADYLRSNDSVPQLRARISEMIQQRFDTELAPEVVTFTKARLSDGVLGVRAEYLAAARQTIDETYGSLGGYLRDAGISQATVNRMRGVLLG
measuredQuantity: IC50 (nM)
Give the value, in units of nM, as a plain number.

Request: Recorded IC50 for O=C(O)[C@H](C1CCCCC1)N1C(=O)/C(=C/c2ccc(-c3ccccc3C(F)(F)F)cc2)SC1=S , please?
Response: 920

Request: Field entry: O=C(O)[C@H](C1CCCCC1)N1C(=O)/C(=C/c2ccc(-c3cccc(Cl)c3)cc2)SC1=S
Response: 990

Request: Field entry: CCCC[C@@H](C(=O)O)N1C(=O)/C(=C/c2ccc(-c3cccc(Cl)c3)cc2)SC1=S
Response: 380

Request: Field entry: CCCC[C@@H](C(=O)O)N1C(=O)/C(=C/c2ccc(-c3ccccc3)cc2)SC1=S
Response: 620

Request: Field entry: CCCC[C@@H](C(=O)O)N1C(=O)/C(=C/c2ccc(-c3cccc(Cl)c3)cn2)SC1=S
Response: 530

Next:
Request: Recorded IC50 for O=C(O)[C@H](Cc1ccccc1)N1C(=O)/C(=C/c2ccc(-c3ccc(F)c(C(F)(F)F)c3)cc2)SC1=S , please?
Response: 920

Request: Field entry: CCCC[C@@H](C(=O)O)N1C(=O)/C(=C/c2ccc(-c3cccc(Cl)c3)c3ccccc23)SC1=S
Response: 670

Request: Field entry: O=C(O)[C@H](C1CCCCC1)N1C(=O)/C(=C/c2ccc(-c3ccc(C(F)(F)F)cc3)cc2)SC1=S
Response: 3130

Request: Field entry: CCCC[C@@H](C(=O)O)N1C(=O)/C(=C/c2ccc(-c3cccc(C(F)(F)F)c3)cc2)SC1=S
Response: 640

Request: Field entry: CCCC[C@@H](C(=O)O)N1C(=O)/C(=C/c2ccc(-c3ccncc3Cl)cc2)SC1=S
Response: 800

Request: Field entry: CCCC[C@@H](C(=O)O)N1C(=O)/C(=C/c2ccc(-c3ccc(Cl)s3)cc2)SC1=S
Response: 430

Request: Field entry: CCCC[C@@H](C(=O)O)N1C(=O)/C(=C/c2ccc(-c3cccc(Cl)c3)c(Cl)c2)SC1=S
Response: 330

Request: Field entry: CCCC[C@@H](C(=O)O)N1C(=O)/C(=C/c2ccc(-c3ccc(F)c(C(F)(F)F)c3)cc2)SC1=S
Response: 480

----------
# reported selectivity ratio; entries follow
system: PTP1B versus M. tuberculosis ptpB; assay: Selectivity index, ratio of IC50 for human PTP1B to Mycobacterium tuberculosis H37Rv ptpB; format: toxicity; details: read-out: Ratio IC50
Reply briefly: the number, and no unit.

Request: Recorded selectivity ratio for O=C(O)[C@H](C1CCCCC1)N1C(=O)/C(=C/c2ccc(-c3cccc(C(F)(F)F)c3)cc2)SC1=S with PTP1B versus M. tuberculosis ptpB, please?
Response: 5

Request: Field entry: CCCC[C@@H](C(=O)O)N1C(=O)/C(=C/c2ccc(-c3ccc(F)c(C(F)(F)F)c3)cc2)SC1=S
Response: 20

Request: Field entry: CCCC[C@@H](C(=O)O)N1C(=O)/C(=C/c2ccc(-c3cccc(C(F)(F)F)c3)cc2)SC1=S
Response: 7

Request: Field entry: CCCC[C@@H](C(=O)O)N1C(=O)/C(=C/c2ccc(-c3cccc(Cl)c3)cc2)SC1=S
Response: 5

----------
assay: Permeability in human Caco-2 cells at 3 uM incubated for 90 mins by LC-MS/MS analysis; assay type: ADME, cell-based; conditions: read-out: permeability
measuredQuantity: Papp at 1.5 h, 3 µM (nm/s)
Give the value, in units of nm/s, as a plain number.

Request: Recorded Papp at 1.5 h, 3 µM for CCCC[C@@H](C(=O)O)N1C(=O)/C(=C/c2ccc(-c3cccc(C(F)(F)F)c3)cc2)SC1=S , please?
Response: 169

----------
# reported pIC50; entries follow
molecular target: Tyrosine-protein phosphatase non-receptor type 1 (Homo sapiens, UniProt P18031); assay: Inhibition of recombinant human PTP1B using pNPP as substrate preincubated for 5 mins followed by substrate addition and measured for 10 mins
Sequence (P18031 whole entry): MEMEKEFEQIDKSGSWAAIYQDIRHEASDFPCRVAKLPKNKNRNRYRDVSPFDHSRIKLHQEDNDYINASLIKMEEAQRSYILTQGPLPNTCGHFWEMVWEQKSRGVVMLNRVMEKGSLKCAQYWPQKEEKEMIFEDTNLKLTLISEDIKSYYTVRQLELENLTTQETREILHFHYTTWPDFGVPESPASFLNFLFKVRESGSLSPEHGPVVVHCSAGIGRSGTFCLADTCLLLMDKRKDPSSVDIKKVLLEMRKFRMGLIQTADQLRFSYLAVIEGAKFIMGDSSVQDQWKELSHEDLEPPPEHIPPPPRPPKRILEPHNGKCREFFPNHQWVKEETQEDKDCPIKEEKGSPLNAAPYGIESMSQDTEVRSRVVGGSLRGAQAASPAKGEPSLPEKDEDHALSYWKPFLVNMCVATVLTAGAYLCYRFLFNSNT
pIC50 is defined as minus the log10 of a concentration measured in mol/L.

Below are worked cases with known answers.
Request: Recorded pIC50 for CCCC[C@@H](C(=O)O)N1C(=O)/C(=C/c2ccc(-c3cccc(OC)c3)cc2)SC1=S , please?
Response: 6.37

Request: Field entry: CCCC[C@@H](C(=O)O)N1C(=O)/C(=C/c2ccc(-c3cccc(C(F)(F)F)c3)c3ccccc23)SC1=S
Response: 7.40

Request: Field entry: O=C(O)[C@H](C1CCCCC1)N1C(=O)/C(=C/c2ccc(-c3ccccc3C(F)(F)F)cc2)SC1=S
Response: 5.80

Next:
Request: Recorded pIC50 for O=C(O)[C@H](C1CCCCC1)N1C(=O)/C(=C/c2ccc(-c3ccc(F)c(C(F)(F)F)c3)cc2)SC1=S , please?
Response: 5.27

Request: Field entry: CCCC[C@@H](C(=O)O)N1C(=O)/C(=C/c2ccc(-c3cccc(Cl)c3)s2)SC1=S
Response: 6.80

Request: Field entry: O=C(O)[C@H](C1CCCCC1)N1C(=O)/C(=C/c2ccc(-c3cccc(Cl)c3)cc2)SC1=S
Response: 5.95

Request: Field entry: CCCC[C@@H](C(=O)O)N1C(=O)/C(=C/c2ccc(-c3cccc(C(F)(F)F)c3)c(Cl)c2)SC1=S
Response: 5.82

Request: Field entry: CCCC[C@@H](C(=O)O)N1C(=O)/C(=C/c2ccc(-c3cccc(C(F)(F)F)c3)cc2)SC1=S
Response: 5.38

Request: Field entry: CCCC[C@@H](C(=O)O)N1C(=O)/C(=C/c2ccc(-c3ccc(F)c(C(F)(F)F)c3)c3ccccc23)SC1=S
Response: 5.26

Request: Field entry: CCCC[C@@H](C(=O)O)N1C(=O)/C(=C/c2ccc(-c3cccc(Cl)c3)c(Cl)c2)SC1=S
Response: 6.03

----------
target: Triple specificity protein phosphatase PtpB (Mycobacterium tuberculosis (strain ATCC 25618 / H37Rv)) (UniProt I6WXK4); assay: Inhibition of Mycobacterium tuberculosis H37Rv ptpB expressed in Escherichia coli BL21(DE3) at 50 uM using pNPP as substrate preincubated for 10 mins followed by substrate addition and measured for 5 mins by spectrophotometer analysis relative to control; conditions: time 15.0 min
Sequence (I6WXK4 whole entry): as the sequence (I6WXK4 whole entry) above
# reported inhibition; entries follow
Give the value, in units of %, as a plain number.

Request: Recorded inhibition for CCCC[C@H](C(=O)O)N1C(=O)/C(=C/c2ccc(-c3ccc(F)c(C(F)(F)F)c3)cc2)SC1=S , please?
Response: 26.4

Request: Field entry: O=C(O)[C@@H](C1CCCCC1)N1C(=O)/C(=C/c2ccc(-c3ccc(F)c(C(F)(F)F)c3)cc2)SC1=S
Response: 30.5

Request: Field entry: O=C(O)[C@H](C1CCCCC1)N1C(=O)/C(=C/c2ccc(-c3ccc(F)c(C(F)(F)F)c3)cc2)SC1=S
Response: 101

Next:
Request: Recorded inhibition for O=C(O)[C@H](C1CCCCC1)N1C(=O)/C(=C/c2ccc(-c3ccc(C(F)(F)F)cc3)cc2)SC1=S , please?
Response: 103

Request: Field entry: O=C(O)[C@H](Cc1ccccc1)N1C(=O)/C(=C/c2ccc(-c3ccc(F)c(C(F)(F)F)c3)cc2)SC1=S
Response: 71.3

Request: Field entry: CCCC[C@@H](C(=O)O)N1C(=O)/C(=C/c2ccc(-c3ccc(C(F)(F)F)cc3)cc2)SC1=S
Response: 100

Request: Field entry: CCCC[C@@H](C(=O)O)N1C(=O)/C(=C/c2ccc(-c3ccc(F)c(C(F)(F)F)c3)cc2)SC1=S
Response: 106

Request: Field entry: O=C(O)[C@@H](Cc1ccccc1)N1C(=O)/C(=C/c2ccc(-c3ccc(F)c(C(F)(F)F)c3)cc2)SC1=S
Response: 56.8

Request: Field entry: O=C(O)[C@H](c1ccccc1)N1C(=O)/C(=C/c2ccc(-c3ccc(F)c(C(F)(F)F)c3)cc2)SC1=S
Response: 97
